# Measurement target: PfSir2A (Plasmodium falciparum)
# Sequence (Q8IE47 whole entry): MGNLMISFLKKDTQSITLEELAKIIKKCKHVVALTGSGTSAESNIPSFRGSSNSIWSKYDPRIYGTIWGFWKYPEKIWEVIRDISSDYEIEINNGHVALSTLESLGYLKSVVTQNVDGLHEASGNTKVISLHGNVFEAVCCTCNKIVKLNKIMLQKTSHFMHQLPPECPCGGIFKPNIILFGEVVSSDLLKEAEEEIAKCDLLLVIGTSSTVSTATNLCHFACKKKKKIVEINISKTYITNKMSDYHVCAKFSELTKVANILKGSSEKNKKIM
# Measurement protocol: HPLC demyristoylation assay with H3K9Myr peptide
# Assay type: biochemical
Assay metric: pIC50
A value of pIC50 is the negative decimal logarithm of a concentration given in moles per litre.

Report pIC50 for CCCCCCCCCCCCCC(=O)O [myristic acid] tested on PfSir2A (Plasmodium falciparum).
3.97

----------
# Measurement target: PfSir2A (Plasmodium falciparum)
# Measurement protocol: HPLC deacetylation assay with H3K9Ac peptide
# Type: biochemical
Assay metric: IC50 (µM)
Write down the numeric answer in µM and omit the unit.

Requested read-out: IC50. Entry: NC(=O)c1ccc[n+]([C@@H]2O[C@H](CO)[C@@H](O)[C@H]2O)c1 [nicotinamide riboside]
155
